For each entry below, report its Control value.
# System: Rattus norvegicus
# experimentDescription: Compound was evaluated for its ability to suppress food intake in one of two meal-fed rats after intraperitoneal administration of 3 ug/kg
# Format: functional
Starred links: 1 amine or outer side, 2 acyl side, 3 side chain; linkers in the order of their positions; H or OH if unused. Non-standard residues stand in square brackets, D forms with d. Residues, ends and D or L forms follow the SMILES beside them. Phe(4-SO3H) = N[C@@H](Cc1ccc(S(=O)(=O)O)cc1)C(=O)O; 3Abz = Nc1cccc(C(=O)O)c1; CO = O=C([*:1])[*:2]; Ava = NCCCCC(=O)O; GABA = NCCCC(=O)O
Note: unit % is implicit; provide only the numeric part.

# Control (compound: CSCC[C@H](NC(=O)[C@H](Cc1c[nH]c2ccccc12)NC(=O)CCCCNC(=O)[C@H](Cc1ccc(S(=O)(=O)O)cc1)NC(=O)O)C(=O)N[C@@H](CC(=O)O)C(=O)N[C@@H](Cc1ccccc1)C(N)=O ({CO}-[Phe(4-SO3H)][Ava]WMDF-NH2) ) is 102

# Control (compound: CSCC[C@H](NC(=O)[C@H](Cc1ccc(S(=O)(=O)O)cc1)NC(=O)O)C(=O)NCC(=O)N[C@@H](Cc1c[nH]c2ccccc12)C(=O)N[C@@H](CCSC)C(=O)N[C@@H](CC(=O)O)C(=O)N[C@@H](Cc1ccccc1)C(N)=O ({CO}-[Phe(4-SO3H)]MGWMDF-NH2) ) is 81

# Control (compound: CSCC[C@H](NC(=O)[C@H](Cc1c[nH]c2ccccc12)NC(=O)c1cccc(NC(=O)[C@H](Cc2ccc(S(=O)(=O)O)cc2)NC(=O)O)c1)C(=O)N[C@@H](CC(=O)O)C(=O)N[C@@H](Cc1ccccc1)C(N)=O ({CO}-[Phe(4-SO3H)][3Abz]WMDF-NH2) ) is 52

# Control (compound: CSCC[C@H](NC(=O)[C@H](Cc1c[nH]c2ccccc12)NC(=O)CCCNC(=O)[C@H](Cc1ccc(S(=O)(=O)O)cc1)NC(=O)O)C(=O)N[C@@H](CC(=O)O)C(=O)N[C@@H](Cc1ccccc1)C(N)=O ({CO}-[Phe(4-SO3H)][GABA]WMDF-NH2) ) is 69

----------
# targetOrSystem: Cholecystokinin receptor type A (Rattus norvegicus)
# Sequence (P30551 whole entry): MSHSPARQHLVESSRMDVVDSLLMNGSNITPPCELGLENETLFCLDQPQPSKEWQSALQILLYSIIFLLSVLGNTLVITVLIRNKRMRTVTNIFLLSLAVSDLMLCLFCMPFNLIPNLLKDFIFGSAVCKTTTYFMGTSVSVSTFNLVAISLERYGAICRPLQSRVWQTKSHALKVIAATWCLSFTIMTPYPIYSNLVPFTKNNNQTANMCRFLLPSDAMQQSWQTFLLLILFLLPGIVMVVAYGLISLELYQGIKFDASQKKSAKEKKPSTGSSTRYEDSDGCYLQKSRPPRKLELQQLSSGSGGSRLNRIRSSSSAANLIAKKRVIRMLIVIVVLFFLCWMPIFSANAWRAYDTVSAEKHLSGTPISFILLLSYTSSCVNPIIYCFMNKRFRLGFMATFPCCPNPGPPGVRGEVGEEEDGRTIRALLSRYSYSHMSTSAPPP
# experimentDescription: The compound was tested in vitro for inhibition of specific [3H]propionyl-CCK-8 binding to cholecystokinin type A receptor in rat pancreatic membranes
# Type: cell membranes, Membrane
Starred links: 1 amine or outer side, 2 acyl side, 3 side chain; linkers in the order of their positions; H or OH if unused. Non-standard residues stand in square brackets, D forms with d. Residues, ends and D or L forms follow the SMILES beside them. Phe(4-SO3H) = N[C@@H](Cc1ccc(S(=O)(=O)O)cc1)C(=O)O; CO = O=C([*:1])[*:2]; Ahx = NCCCCCC(=O)O; Ava = NCCCCC(=O)O; GABA = NCCCC(=O)O; βAla = NCCC(=O)O
endpointLabel: IC50 (nM)
Note: unit nM is implicit; provide only the numeric part.

# IC50 (compound: CSCC[C@H](NC(=O)[C@H](Cc1c[nH]c2ccccc12)NC(=O)CCCNC(=O)[C@H](Cc1ccc(S(=O)(=O)O)cc1)NC(=O)O)C(=O)N[C@@H](CC(=O)O)C(=O)N[C@@H](Cc1ccccc1)C(N)=O ({CO}-[Phe(4-SO3H)][GABA]WMDF-NH2) ) is 4.9

# IC50 (compound: CSCC[C@H](NC(=O)[C@H](Cc1c[nH]c2ccccc12)NC(=O)CCNC(=O)[C@H](Cc1ccc(S(=O)(=O)O)cc1)NC(=O)O)C(=O)N[C@@H](CC(=O)O)C(=O)N[C@@H](Cc1ccccc1)C(N)=O ({CO}-[Phe(4-SO3H)][βAla]WMDF-NH2) ) is 10000

# IC50 (compound: CSCC[C@H](NC(=O)[C@H](Cc1c[nH]c2ccccc12)NC(=O)CNC(=O)[C@H](Cc1ccc(S(=O)(=O)O)cc1)NC(=O)O)C(=O)N[C@@H](CC(=O)O)C(=O)N[C@@H](Cc1ccccc1)C(N)=O ({CO}-[Phe(4-SO3H)]GWMDF-NH2) ) is 1200

# IC50 (compound: CSCC[C@H](NC(=O)[C@H](Cc1c[nH]c2ccccc12)NC(=O)CCCCNC(=O)[C@H](Cc1ccc(S(=O)(=O)O)cc1)NC(=O)O)C(=O)N[C@@H](CC(=O)O)C(=O)N[C@@H](Cc1ccccc1)C(N)=O ({CO}-[Phe(4-SO3H)][Ava]WMDF-NH2) ) is 22

# IC50 (compound: CSCC[C@H](NC(=O)[C@H](Cc1c[nH]c2ccccc12)NC(=O)CCCCCNC(=O)[C@H](Cc1ccc(S(=O)(=O)O)cc1)NC(=O)O)C(=O)N[C@@H](CC(=O)O)C(=O)N[C@@H](Cc1ccccc1)C(N)=O ({CO}-[Phe(4-SO3H)][Ahx]WMDF-NH2) ) is 360

# IC50 (compound: CSCC[C@H](NC(=O)[C@H](Cc1ccc(S(=O)(=O)O)cc1)NC(=O)O)C(=O)NCC(=O)N[C@@H](Cc1c[nH]c2ccccc12)C(=O)N[C@@H](CCSC)C(=O)N[C@@H](CC(=O)O)C(=O)N[C@@H](Cc1ccccc1)C(N)=O ({CO}-[Phe(4-SO3H)]MGWMDF-NH2) ) is 0.6

Data provenance is ChEMBL document CHEMBL1125313.
